I'd appreciate it if you could supply viability values for the items below.
Assay: SK-BR-3 cell growth inhibitors, pilot screen, 24 h, human (AID 572);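 also: compound exposure lasted between 18 and 24 h rather than exactly 24 h; 100% = carrier-treated control wells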
Conditions: SK-BR-3 viability, CellTiter-Glo luminescence, at 10 µM, hits give low values
Activity calls are given as the source filed them.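 The calls were made as follows: active = viability at or below 10% of carrier control in both of two separate runs; inconclusive = viability at or below 10% in only one of the two runs; inactive = the rest.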

O=C(Nc1ccc2c(c1)OCO2)C(c1ccc(Cl)cc1)N1CCN(C(=O)c2ccco2)CC1 (centres undefined) | 71% (inactive)
CNC(=O)CSc1nnc(-c2ccc(S(=O)(=O)N3CCCC3)cc2)n1-c1cccc(C)c1C | 79.5% (inactive)

Take each entry in turn and give its viability.
1. O=S(=O)(Nc1ccccn1)c1ccc(Oc2ccccc2)cc1
2. CC(=O)[C@@]1(O)CC[C@H]2[C@@H]3CCC4=CC(=O)CC[C@]4(C)[C@H]3[C@@H](O)C[C@@]21C
3. CCCn1c(C)nc2c(c1=O)c1nc3ccccc3nc1n2CCc1ccccc1
4. O=C(NCC1CCCO1)c1ccccc1-c1nc(-c2ccc(Cl)cc2)no1 (centres undefined)
5. CCCOc1ccc(N2C(=O)C3ON(c4ccccc4)C(c4ccc(O)c(OC)c4)C3C2=O)cc1 (centres undefined)
6. C#CC(CO)N(CCN(Cc1ccccc1)C(C#C)CO)Cc1ccccc1 (centres undefined)

Data returned:
1: 88% (inactive); 2: 97% (inactive); 3: 98% (inactive); 4: 78.5% (inactive); 5: 106% (inactive); 6: 107% (inactive)

Take each entry in turn and give its viability.
1. Nc1ccc(C(=O)OCCCc2nc3ccccc3[nH]2)cc1
2. O=C(CCn1c(=O)sc2ccccc21)Nc1nccs1
3. CS(=O)(=O)N(CC(=O)O)c1cccc(Cl)c1

Data returned:
1. 92% (inactive)
2. 98.5% (inactive)
3. 95% (inactive)

Take each entry in turn and give its viability.
1. Cc1ccsc1C(C(=O)NC1CCCCC1)N(C(=O)Cc1cccs1)C1CC1 (centres undefined)
2. CCOC(=O)/N=C(/NC(=O)Nc1ccc(C(=O)OCC)cc1)OC
3. O=C(CN(CCc1ccccc1)C(=O)CNS(=O)(=O)c1ccccc1)NCC1CCCO1 (centres undefined)

Data returned:
1. 97.5% (inactive)
2. 99.5% (inactive)
3. 91% (inactive)
